# target: human AhR (hAhR) (Homo sapiens, UniProt P35869)
# Sequence (P35869 11-848): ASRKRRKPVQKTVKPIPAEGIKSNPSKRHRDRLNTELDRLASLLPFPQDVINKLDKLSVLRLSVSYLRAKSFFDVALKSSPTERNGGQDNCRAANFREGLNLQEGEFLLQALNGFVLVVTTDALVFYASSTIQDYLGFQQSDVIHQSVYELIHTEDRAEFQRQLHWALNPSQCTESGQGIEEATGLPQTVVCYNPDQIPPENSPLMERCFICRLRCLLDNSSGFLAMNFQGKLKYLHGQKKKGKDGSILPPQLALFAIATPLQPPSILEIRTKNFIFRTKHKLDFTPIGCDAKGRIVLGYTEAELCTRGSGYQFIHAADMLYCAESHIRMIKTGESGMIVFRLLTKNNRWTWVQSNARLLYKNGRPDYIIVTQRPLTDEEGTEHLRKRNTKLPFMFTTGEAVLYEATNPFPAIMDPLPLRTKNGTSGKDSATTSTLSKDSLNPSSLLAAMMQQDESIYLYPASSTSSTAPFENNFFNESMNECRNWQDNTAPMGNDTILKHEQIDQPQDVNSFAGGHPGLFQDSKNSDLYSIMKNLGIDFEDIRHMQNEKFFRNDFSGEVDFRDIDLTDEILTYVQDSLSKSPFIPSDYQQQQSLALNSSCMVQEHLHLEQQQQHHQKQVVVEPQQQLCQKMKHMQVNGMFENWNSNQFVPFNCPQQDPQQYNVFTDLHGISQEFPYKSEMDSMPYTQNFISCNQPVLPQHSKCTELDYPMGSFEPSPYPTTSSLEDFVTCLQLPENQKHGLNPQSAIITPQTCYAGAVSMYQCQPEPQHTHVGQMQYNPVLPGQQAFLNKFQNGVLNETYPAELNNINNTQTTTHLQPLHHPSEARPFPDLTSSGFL
# method_notes: AhR-dependent pXRE-SV40-Luc luciferase reporter in HepG2 cells
# Format: cell-based
# measurement_conditions: read-out: EC50 for AhR luciferase reporter activity; HepG2 cells, 24 h treatment
Reported EC50 values for the following compounds.
# unit: nM | format: bare number

- structure: "Clc1ccc(-c2cc(Cl)c(Cl)c(Cl)c2)cc1"
  EC50 [nM]: 6.8

Please provide the recorded EC50 for Clc1ccc(-c2cc(Cl)c(Cl)c(Cl)c2)cc1Cl , tested on human AhR (hAhR) (Homo sapiens, UniProt P35869).
250
